Target: Apelin receptor (Homo sapiens, UniProt P35414)
Sequence (P35414 whole entry): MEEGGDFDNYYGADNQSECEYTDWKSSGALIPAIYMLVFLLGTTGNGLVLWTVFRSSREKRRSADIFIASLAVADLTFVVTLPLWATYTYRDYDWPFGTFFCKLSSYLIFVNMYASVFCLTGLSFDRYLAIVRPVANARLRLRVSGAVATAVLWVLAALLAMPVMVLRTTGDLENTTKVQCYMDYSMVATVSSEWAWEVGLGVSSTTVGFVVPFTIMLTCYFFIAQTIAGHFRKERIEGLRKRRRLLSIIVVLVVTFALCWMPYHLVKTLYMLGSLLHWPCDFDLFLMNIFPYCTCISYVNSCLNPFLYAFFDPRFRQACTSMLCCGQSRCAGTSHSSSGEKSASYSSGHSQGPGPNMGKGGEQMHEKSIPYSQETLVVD
Assay: Antagonist activity at APJ receptor expressed in CHOK1 cells assessed as inhibition of apelin13-induced beta-arrestin recruitment after 90 mins by luminescence assay
Readings of IC50 for the listed compounds
quantity.measured: IC50

Cc1cc(C)nc(SCc2cc(=O)c(OS(=O)(=O)c3ccccc3)co2)n1 ... > 79 µM
O=C(Oc1coc(CSc2ccc(Cl)cc2)cc1=O)c1ccc(Cl)c([N+](=O)[O-])c1 ... 4.53 µM
CCCCOc1ccc(C(=O)Oc2coc(CSc3ncccn3)cc2=O)cc1 ... > 79 µM
Cc1ccnc(SCc2cc(=O)c(NC(=O)c3ccc([N+](=O)[O-])cc3)co2)n1 ... > 79 µM
Cc1ccnc(SCc2cc(=O)c(OC(=O)c3ccc([N+](=O)[O-])o3)co2)n1 ... > 79 µM
O=C(Oc1coc(CSc2ccccc2)cc1=O)c1ccc(Cl)c([N+](=O)[O-])c1 ... 9.61 µM
Cc1ccnc(SCc2cc(=O)c(OC(=O)c3ccsc3)co2)n1 ... > 79 µM
Cc1ccc(SCc2cc(=O)c(OC(=O)c3ccc(Cl)c([N+](=O)[O-])c3)co2)cc1 ... 12.8 µM
O=c1cc(CSc2ccccc2)occ1O ... > 79 µM
O=C(Oc1coc(CSc2ncccn2)cc1=O)c1ccc(S(=O)(=O)N2CCCC2)cc1 ... > 79 µM
Cc1cccc(C(=O)Oc2coc(CSc3nccc(C)n3)cc2=O)c1 ... > 79 µM
Cc1cc(C)nc(SCc2cc(=O)c(OS(=O)(=O)c3ccc([N+](=O)[O-])cc3)co2)n1 ... > 79 µM
O=C(Oc1coc(CSc2ncccn2)cc1=O)c1ccc(F)cc1 ... > 79 µM
Cc1ccnc(SCc2cc(=O)c(OC(=O)c3ccccc3Cl)co2)n1 ... > 59 µM
O=c1cc(CSc2ccc(F)cc2)occ1O ... > 79 µM
O=c1cc(CSc2ncccn2)occ1O ... > 79 µM
Cc1ccnc(SCc2cc(=O)c(O)co2)n1 ... > 79 µM
Cc1ccnc(SCc2cc(=O)c(OC(=O)c3cccc(Cl)c3)co2)n1 ... > 79 µM
COc1ccc(C(=O)Oc2coc(CSc3nccc(C)n3)cc2=O)cc1 ... > 79 µM
Cc1ccnc(SCc2cc(=O)c(OCc3ccc(Cl)c([N+](=O)[O-])c3)co2)n1 ... > 79 µM
Cc1cc(C)nc(SCc2cc(=O)c(O)co2)n1 ... > 79 µM
Cc1ccc(C(=O)Oc2coc(CSc3ncccn3)cc2=O)cc1 ... > 79 µM
CC(=O)Oc1coc(CSc2nccc(C)n2)cc1=O ... > 79 µM
